# tested-system: TAAR1 (Homo sapiens)
# Construct: expressed in transfected cells; host or cells: CHO-K1 (cAMP Hunter TAAR1 Gs cell line)
# Sequence (Q96RJ0 whole entry): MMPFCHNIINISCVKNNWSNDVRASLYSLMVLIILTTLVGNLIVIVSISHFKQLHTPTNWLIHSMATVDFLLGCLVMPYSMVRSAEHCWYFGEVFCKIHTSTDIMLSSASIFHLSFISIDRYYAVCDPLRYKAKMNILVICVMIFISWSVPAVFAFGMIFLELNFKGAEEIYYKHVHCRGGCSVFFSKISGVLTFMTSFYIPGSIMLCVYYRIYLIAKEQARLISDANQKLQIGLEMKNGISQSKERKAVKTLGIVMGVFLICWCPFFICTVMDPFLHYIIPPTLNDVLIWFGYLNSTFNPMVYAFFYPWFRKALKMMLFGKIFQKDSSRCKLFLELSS
# measurement-protocol: In vitro TAAR1 functional activity (cAMP Hunter CHO-K1 TAAR1 Gs cell line, HitHunter cAMP assay)
# Type: cell-based
# test-context: cAMP Hunter CHO-K1 TAAR1 Gs cell line, chemiluminescence cAMP readout; read-out: EC50
# Experimental: Test Example 1. In Vitro Evaluation of Intrasynaptic and Extrasynaptic Functional Activities in Cells Cell: CAMP Hunter™ CHO-K1 TAAR1 Gs Cell Line Assay Reagent: HitHunter cAMP Assay Detection Kit […] Experimental method: cell treatment: The cAMP Hunter cell strain was cultured at 37° C. with 5% CO2 to 70-80% confluence. […] The chemiluminescence signal was read using a PerkinElmer Envision™ detector. Data analysis: EC50 was calculated using CBIS data analysis software (ChemInnovation, CA). […]
# EC50 listing for each entry below
parameter: EC50

> print(dat)
                                    compound  endpoint.value
 1  COc1ccsc1C1CNCCO1 (single isomer, unassigned) [Compound 10-a]        0.028 µM
 2                     CNC[C@@H]1NCCc2ccsc21         > 10 µM
 3  CNCC1OC(C)Cc2ccsc21 (single isomer, unassigned) [Compound 28-b]         1.84 µM
 4  FC(F)(F)COc1ccsc1C1CNCCO1 (stereo not shown)         4.72 µM
 5  NCC1SCCc2ccsc21 (single isomer, unassigned) [Compound 43-a]         > 10 µM
 6  CNCC1OCC(c2ccccc2)c2ccsc21 (single isomer, unassigned) [Compound 32-d]         > 10 µM
 7  CNCC1OCC(c2ccccc2)c2ccsc21 (single isomer, unassigned) [Compound 32-a]         > 10 µM
 8  CNCC1OC(C)Cc2ccsc21 (single isomer, unassigned) [Compound 28-a]         > 10 µM
 9      CNCC1c2sccc2CCN1C (stereo not shown)         > 10 µM
10                      NC[C@@H]1NCCc2ccsc21          9.1 µM
